Listed here are compounds together with their documented solubility (g/100 g solution).
assay: xn = mol fraction of the nth substance listed, in the solute-free solvent; conditions: 318.15 K; x2 = 0.2307
Please state the value as a number alone, without comment.

### Prompt What measured solubility (g/100 g solution) goes with c1ccc2[nH]c(-c3cscn3)nc2c1 + CC(C)O + O ?
### Response 0.197

### Prompt Give the measured solubility (g/100 g solution) of Cc1[nH]c(=O)c(C#N)cc1-c1ccncc1 + CC(C)O + O .
### Response 0.0151

### Prompt # input compound: Nc1cccc(S(=O)(=O)c2cccc(N)c2)c1 + CC(C)O + O ; wanted: its solubility (g/100 g solution)
### Response 1.6

### Prompt Given c1ccc2[nH]c(-c3cscn3)nc2c1 + CCCO + O , state its recorded solubility (g/100 g solution).
### Response 0.365

### Prompt So what does the record say about solubility (g/100 g solution) for Nc1nccnc1Cl + CC(C)O + O ?
### Response 1.09

### Prompt Look up solubility (g/100 g solution) for this compound: CN1CCN(C2=Nc3cc(Cl)ccc3Nc3ccccc32)CC1 + CC(C)O + O
### Response 0.923

Provenance of the data: the CheMixHub drug solubility set
